tgt: GPIIb-IIIa (fibrinogen receptor, αIIbβ3) (Homo sapiens, UniProt P05106+P08514)
Sequence (P08514 32-887 limits assumed): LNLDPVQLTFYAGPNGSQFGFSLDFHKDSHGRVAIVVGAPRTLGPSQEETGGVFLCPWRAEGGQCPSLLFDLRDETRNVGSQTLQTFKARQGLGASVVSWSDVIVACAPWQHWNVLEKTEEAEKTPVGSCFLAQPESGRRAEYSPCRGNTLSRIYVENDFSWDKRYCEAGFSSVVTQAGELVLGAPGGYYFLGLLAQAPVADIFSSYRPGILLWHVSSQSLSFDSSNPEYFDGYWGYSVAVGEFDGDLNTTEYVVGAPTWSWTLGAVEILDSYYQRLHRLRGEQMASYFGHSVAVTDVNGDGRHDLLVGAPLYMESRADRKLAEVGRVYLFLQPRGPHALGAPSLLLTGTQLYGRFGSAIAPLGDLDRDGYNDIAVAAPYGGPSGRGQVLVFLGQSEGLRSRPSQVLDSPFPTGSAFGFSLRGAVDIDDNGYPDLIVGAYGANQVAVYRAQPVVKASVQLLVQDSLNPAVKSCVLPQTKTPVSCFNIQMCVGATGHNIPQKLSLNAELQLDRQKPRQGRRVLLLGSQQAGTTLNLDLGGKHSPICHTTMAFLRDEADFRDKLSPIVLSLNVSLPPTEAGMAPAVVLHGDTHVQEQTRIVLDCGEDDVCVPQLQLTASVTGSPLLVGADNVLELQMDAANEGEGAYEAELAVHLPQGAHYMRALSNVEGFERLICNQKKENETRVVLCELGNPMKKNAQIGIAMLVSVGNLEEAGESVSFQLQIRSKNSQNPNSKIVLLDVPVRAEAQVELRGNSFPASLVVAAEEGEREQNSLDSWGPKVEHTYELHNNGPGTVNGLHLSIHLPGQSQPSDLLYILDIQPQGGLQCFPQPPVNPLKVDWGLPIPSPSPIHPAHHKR
Sequence (P08514 891-1039 partner limits assumed): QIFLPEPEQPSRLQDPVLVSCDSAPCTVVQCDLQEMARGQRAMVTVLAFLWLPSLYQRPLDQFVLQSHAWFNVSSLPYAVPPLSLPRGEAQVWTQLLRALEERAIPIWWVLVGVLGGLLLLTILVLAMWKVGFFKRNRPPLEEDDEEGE
Sequence (P05106 27-788): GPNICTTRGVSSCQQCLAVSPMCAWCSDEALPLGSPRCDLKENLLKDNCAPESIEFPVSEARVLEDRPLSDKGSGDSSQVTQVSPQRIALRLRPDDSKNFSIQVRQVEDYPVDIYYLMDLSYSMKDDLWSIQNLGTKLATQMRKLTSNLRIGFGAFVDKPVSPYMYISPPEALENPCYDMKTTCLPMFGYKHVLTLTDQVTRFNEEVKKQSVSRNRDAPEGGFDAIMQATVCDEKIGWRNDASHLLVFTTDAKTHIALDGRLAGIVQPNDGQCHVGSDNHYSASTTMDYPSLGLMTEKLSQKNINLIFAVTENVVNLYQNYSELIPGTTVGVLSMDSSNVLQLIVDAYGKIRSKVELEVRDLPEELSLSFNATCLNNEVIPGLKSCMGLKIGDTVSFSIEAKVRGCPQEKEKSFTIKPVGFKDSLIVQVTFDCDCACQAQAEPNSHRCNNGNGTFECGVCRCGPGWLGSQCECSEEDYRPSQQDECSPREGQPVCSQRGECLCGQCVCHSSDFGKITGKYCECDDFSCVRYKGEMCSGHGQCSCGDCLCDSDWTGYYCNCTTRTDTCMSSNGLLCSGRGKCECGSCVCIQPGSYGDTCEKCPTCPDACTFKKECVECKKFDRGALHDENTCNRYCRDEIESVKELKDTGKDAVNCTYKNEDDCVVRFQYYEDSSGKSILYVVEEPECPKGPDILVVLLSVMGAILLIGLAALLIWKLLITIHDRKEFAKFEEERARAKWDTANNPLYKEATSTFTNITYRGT
procedure details: Competitive binding to GPIIb-IIIa with [3H]-SK&F-107260 (inhibition of RGD-mediated GPIIb-IIIa binding)
test readout: Ki

Reference set (4 entries):
CN(CCO)C(=O)c1ccc2c(c1)CN(C)C(=O)C(CC(=O)O)N2 (racemic) ... > 50 µM
CN1Cc2cc(NC(=O)c3ccccn3)ccc2CC(CC(=O)O)C1=O (racemic) ... > 50 µM
CN1Cc2cc(C(=O)N3CCN(c4ncccn4)CC3)ccc2NC(CC(=O)O)C1=O (racemic) ... > 50 µM
CN1Cc2cc(C(=O)N3CCN(c4ccccc4)CC3)ccc2NC(CC(=O)O)C1=O (racemic) ... > 100 µM

Consider the record given below.
Measured Ki of CN1Cc2cc(C(=O)Nc3cccc(C(N)=O)c3)ccc2NC(CC(=O)O)C1=O (racemic) : > 50 µM
